- assayed_target: T1, human GIP receptor (human, UniProt P48546 22-466)
- T1 sequence (looked up): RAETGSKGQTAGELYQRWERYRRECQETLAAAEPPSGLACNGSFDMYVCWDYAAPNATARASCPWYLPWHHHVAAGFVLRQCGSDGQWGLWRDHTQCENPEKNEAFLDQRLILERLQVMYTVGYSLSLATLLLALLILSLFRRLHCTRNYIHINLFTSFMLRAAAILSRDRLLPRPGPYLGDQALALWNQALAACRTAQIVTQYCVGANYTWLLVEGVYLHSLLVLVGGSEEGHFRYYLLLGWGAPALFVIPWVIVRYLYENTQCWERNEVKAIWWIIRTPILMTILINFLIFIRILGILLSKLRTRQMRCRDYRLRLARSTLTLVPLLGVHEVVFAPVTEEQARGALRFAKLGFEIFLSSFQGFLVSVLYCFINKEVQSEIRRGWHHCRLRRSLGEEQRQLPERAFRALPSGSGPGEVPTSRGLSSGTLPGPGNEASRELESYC
- measurement_notes: cell-based or functional assay
Numbered stars: 1 amine (or outer) side, 2 acyl side, 3 side chain; on linkers, the order of the positions; unused ones are H or OH. Square brackets hold non-standard residues; d marks the D form. Side chains are listed from the residue outwards. * marks the point of attachment. C18 diacid = O=C(O)CCCCCCCCCCCCCCCCC(=O)*; γGlu = O=C(O)[C@H](CCC(=O)[*:2])N[*:1]; Chem. 28 = not defined here; AEEA = NCCOCCOCC(=O)O; Aib = CC(C)(N)C(=O)O
Response key: yes means hGIPR Potency, no HSA, EC50 [pM] >= 3 pM; no means hGIPR Potency, no HSA, EC50 [pM] < 3 pM.

[[record]]
binder = "Compound 15 (peptide) peptide: H[Aib]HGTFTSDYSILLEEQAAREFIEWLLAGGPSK([AEEA-AEEA-γGlu-C18 diacid])GAPPPSGGGEASELSTAALGRLSAELHELATLPRTETGSGSP-NH2"
class_name = "yes"

[[record]]
binder = "Compound 101 (reading uncertain) peptide: H[Aib]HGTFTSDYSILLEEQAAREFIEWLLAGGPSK(Chem. 28)GAPPPSGGGEASHLSTAQTARLSAELHQLATLPRTETGSGSP-NH2"
class_name = "no"

[[record]]
binder = "Compound 28 (reading uncertain) peptide: Y[Aib]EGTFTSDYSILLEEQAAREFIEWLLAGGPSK(Chem. 28)GEASELSTAALARLSAELHRLATLPRTETGSGSP-NH2"
class_name = "yes"

[[record]]
binder = "Compound 70 (peptide) peptide: H[Aib]HGTFTSDYSILLEEQAAREFIEWLLAGGPSRGAPPPSGGGEASELSTAALGRLSAELHK([AEEA-AEEA-γGlu-C18 diacid])LATLPRTETGSGSP-NH2"
class_name = "yes"

[[record]]
binder = "Compound 92 (peptide) peptide: H[Aib]HGTFTSDYSILLEEQAAREFIEWLLAGGPSSGAGQAPGQAPGASHLSTAQTQRLSAELHRLATLPK([AEEA-AEEA-γGlu-C18 diacid])TETGSGSP-NH2"
class_name = "yes"


The reported numbers originate from patent US20260174875A1.
